The following compounds are shown together with reported Ki values.
Target: Metabotropic glutamate receptor 5 (Rattus norvegicus)
Experiment: In vitro binding affinity of compound towards rat metabotropic glutamate receptor 5 was determined by displacement of [3H]M-MPEP from rat whole brain

molecular.string: Cc1cccc(C#Cc2cccc(-c3ccccc3)c2)n1
measured.target: Metabotropic glutamate receptor 5 (Rattus norvegicus)
Ki: 993 nM
--
molecular.string: Cc1cccc(C#Cc2cncc(-c3cccc(C)n3)c2)n1
measured.target: Metabotropic glutamate receptor 5 (Rattus norvegicus)
Ki: 13 nM
--
molecular.string: Cc1cccc(C#Cc2cncc(-c3cccs3)c2)n1
measured.target: Metabotropic glutamate receptor 5 (Rattus norvegicus)
Ki: 155 nM
--
molecular.string: COc1cccc(-c2cccc(C#Cc3cccc(C)n3)c2)c1
measured.target: Metabotropic glutamate receptor 5 (Rattus norvegicus)
Ki: 2360 nM
--
molecular.string: Cc1cccc(C#Cc2cncc(-c3ccccc3)c2)n1
measured.target: Metabotropic glutamate receptor 5 (Rattus norvegicus)
Ki: 1.7 nM
--
molecular.string: Cc1cccc(C#Cc2cncc(-c3ccco3)c2)n1
measured.target: Metabotropic glutamate receptor 5 (Rattus norvegicus)
Ki: 6.5 nM
--
molecular.string: COc1cccc(-c2cncc(C#Cc3cccc(C)n3)c2)c1
measured.target: Metabotropic glutamate receptor 5 (Rattus norvegicus)
Ki: 74 nM
--
molecular.string: Cc1cccc(C#Cc2cccc(-c3cccs3)c2)n1
measured.target: Metabotropic glutamate receptor 5 (Rattus norvegicus)
Ki: 147 nM
--
molecular.string: Cc1cccc(C#Cc2cccc(-c3ccco3)c2)n1
measured.target: Metabotropic glutamate receptor 5 (Rattus norvegicus)
Ki: 36 nM

----------
Biological target: Metabotropic glutamate receptor 5 (Rattus norvegicus, UniProt P31424)
Sequence (P31424 whole entry): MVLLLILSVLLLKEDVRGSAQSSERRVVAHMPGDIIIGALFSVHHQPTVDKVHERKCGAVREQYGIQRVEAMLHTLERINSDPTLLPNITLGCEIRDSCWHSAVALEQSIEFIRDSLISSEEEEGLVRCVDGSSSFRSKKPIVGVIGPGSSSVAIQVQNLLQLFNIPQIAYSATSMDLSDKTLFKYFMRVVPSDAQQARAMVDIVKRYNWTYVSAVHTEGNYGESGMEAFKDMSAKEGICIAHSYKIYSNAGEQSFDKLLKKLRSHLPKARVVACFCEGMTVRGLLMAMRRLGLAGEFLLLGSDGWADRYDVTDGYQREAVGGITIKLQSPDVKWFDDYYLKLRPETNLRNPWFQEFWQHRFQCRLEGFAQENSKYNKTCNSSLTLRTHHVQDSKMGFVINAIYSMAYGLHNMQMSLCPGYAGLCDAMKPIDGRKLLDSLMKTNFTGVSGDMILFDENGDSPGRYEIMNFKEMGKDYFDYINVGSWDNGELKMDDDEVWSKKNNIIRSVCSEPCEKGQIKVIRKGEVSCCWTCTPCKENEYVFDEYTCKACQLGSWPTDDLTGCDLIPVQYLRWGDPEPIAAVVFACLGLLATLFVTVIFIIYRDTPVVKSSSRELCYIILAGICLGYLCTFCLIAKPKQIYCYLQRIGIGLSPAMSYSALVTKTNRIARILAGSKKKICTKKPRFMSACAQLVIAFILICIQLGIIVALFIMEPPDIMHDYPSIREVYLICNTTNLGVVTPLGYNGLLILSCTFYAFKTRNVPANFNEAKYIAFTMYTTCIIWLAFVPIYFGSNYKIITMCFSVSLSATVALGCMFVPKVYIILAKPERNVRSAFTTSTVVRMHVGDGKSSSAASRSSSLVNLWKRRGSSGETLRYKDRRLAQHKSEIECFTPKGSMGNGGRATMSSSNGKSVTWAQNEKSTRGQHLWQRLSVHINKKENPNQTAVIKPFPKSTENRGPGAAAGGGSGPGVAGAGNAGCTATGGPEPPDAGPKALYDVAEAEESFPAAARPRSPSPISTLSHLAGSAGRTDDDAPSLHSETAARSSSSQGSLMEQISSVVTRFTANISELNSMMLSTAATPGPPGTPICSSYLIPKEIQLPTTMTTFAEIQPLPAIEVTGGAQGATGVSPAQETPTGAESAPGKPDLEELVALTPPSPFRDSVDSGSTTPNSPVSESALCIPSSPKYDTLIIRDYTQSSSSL
The following compounds are shown together with reported log10(IC50) values.
property.label: log10(IC50) (log10 of the value in nM)

molecular.string: Cc1cccc(C#Cc2cccc(OCCc3ccc(F)cc3)c2)n1
recorded.measurement: 3.31
//
molecular.string: Cc1cccc(C#Cc2cccc(OCc3ccccc3)c2)n1
recorded.measurement: 3.26
//
molecular.string: Cc1cccc(C#Cc2cccc(C#N)c2)n1
recorded.measurement: 0.70
//
molecular.string: Cc1cccc(C#Cc2cccc([N+](=O)[O-])c2)n1
recorded.measurement: 1.11
//
molecular.string: COC(=O)c1cccc(C#Cc2cccc(C)n2)c1
recorded.measurement: 2.32

----------
The following compounds each carry a recorded log10(IC50) for Metabotropic glutamate receptor 5 (Rattus norvegicus).
property.label: log10(IC50) (log10 of the value in µM)

molecular.string: Cc1cccc(C#Cc2cncc(-c3ccco3)c2)n1
measured.target: Metabotropic glutamate receptor 5 (Rattus norvegicus)
recorded.measurement: -0.69
--
molecular.string: Cc1cccc(C#Cc2cncc(-c3ccccc3)c2)n1
measured.target: Metabotropic glutamate receptor 5 (Rattus norvegicus)
recorded.measurement: -1.70
--
molecular.string: Cc1cccc(C#Cc2cccc(OCCCc3ccccc3)c2)n1
measured.target: Metabotropic glutamate receptor 5 (Rattus norvegicus)
recorded.measurement: 0.08
--
molecular.string: Cc1cccc(C#Cc2cccc(OCc3cccc(I)c3)c2)n1
measured.target: Metabotropic glutamate receptor 5 (Rattus norvegicus)
recorded.measurement: 0.30
--
molecular.string: Cc1cccc(C#Cc2cccc(OC(=O)CCCBr)c2)n1
measured.target: Metabotropic glutamate receptor 5 (Rattus norvegicus)
recorded.measurement: 0.53
--
molecular.string: Cc1cccc(C#Cc2cccc(OC(=O)Cc3ccccc3)c2)n1
measured.target: Metabotropic glutamate receptor 5 (Rattus norvegicus)
recorded.measurement: -0.13
--
molecular.string: COC(=O)COc1cccc(C#Cc2cccc(C)n2)c1
measured.target: Metabotropic glutamate receptor 5 (Rattus norvegicus)
recorded.measurement: 0.38
--
molecular.string: Cc1cccc(C#Cc2cncc(-c3cccs3)c2)n1
measured.target: Metabotropic glutamate receptor 5 (Rattus norvegicus)
recorded.measurement: -0.57
--
molecular.string: Cc1cccc(C#Cc2cccc(OCC3CC3)c2)n1
measured.target: Metabotropic glutamate receptor 5 (Rattus norvegicus)
recorded.measurement: -0.38
--
molecular.string: CC(=O)c1cccc(C#Cc2cccc(C)n2)c1
measured.target: Metabotropic glutamate receptor 5 (Rattus norvegicus)
recorded.measurement: -0.84
--
molecular.string: COc1cccc(C#Cc2cccc(C)n2)c1
measured.target: Metabotropic glutamate receptor 5 (Rattus norvegicus)
recorded.measurement: -2.10
--
molecular.string: Cc1cccc(C#Cc2cccc(OC(=O)c3ccccc3)c2)n1
measured.target: Metabotropic glutamate receptor 5 (Rattus norvegicus)
recorded.measurement: 0.18
